# System: Pseudomonas elastase (Pseudomonas aeruginosa, UniProt P14756)
# Sequence (P14756 198-498): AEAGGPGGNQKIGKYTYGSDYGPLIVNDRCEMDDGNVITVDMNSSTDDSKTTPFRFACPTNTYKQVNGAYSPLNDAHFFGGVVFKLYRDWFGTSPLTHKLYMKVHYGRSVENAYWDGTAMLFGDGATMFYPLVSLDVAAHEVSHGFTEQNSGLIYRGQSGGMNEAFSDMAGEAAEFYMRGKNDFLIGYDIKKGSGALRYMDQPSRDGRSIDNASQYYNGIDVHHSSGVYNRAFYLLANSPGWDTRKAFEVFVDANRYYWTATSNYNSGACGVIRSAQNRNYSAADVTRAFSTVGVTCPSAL
# Assay Method Text: biochemical
# Study Conditions: 25° C., pH 7.5, substrate furylacryloyl-Gly-Leu-Ala; read-out: Ki
Property Measured: Ki (µM)

> print(dat)
                                chem.smiles  observed.value
1  CC(C)C[C@H](NC(=O)CS)C(=O)N[C@H](Cc1ccccc1)C(=O)O              34
